System: Zea mays
EXPERIMENTAL_PROTOCOL: Crop compatibility post-emergence (greenhouse pot trial)
Format: in vivo
EXPERIMENTAL_PARAMETERS: application rate 5 g/ha
MEASURED_METRIC: Zea mays (Efficacy in %)
Answers are plain numbers, in %.

Sample records with Zea mays (Efficacy in %):
COMPOUND	Zea mays (Efficacy in %)
COCCNC(=O)C(C)Sc1cc(-n2c(=O)cc(C(F)(F)F)n(C)c2=O)c(F)cc1Cl (stereo not shown) [I.1-151]	20
CCC(Sc1cc(-n2c(=O)c(C)c(C(F)(F)F)n(C)c2=O)c(F)cc1Cl)C(=O)OCC1CCCO1 (stereo not shown) [I.12-71]	0

For every listed record, write down its Zea mays (Efficacy in %).
1. Cc1c(C(F)(F)F)n(C)c(=O)n(-c2cc(SCC(C)(C)C(=O)OCC3CCSC3)c(Cl)cc2F)c1=O (stereo not shown) [I.54-82]
2. CC(Sc1cc(-n2c(=O)cc(C(F)(F)F)n(C)c2=O)c(F)cc1Cl)C(=O)OC1COC1 (stereo not shown) [I.1-115]

[20, 20]

Could you report Zea mays (Efficacy in %) for every entry in the following list?
1. CCC(Sc1cc(-n2c(=O)c(C)c(C(F)(F)F)n(C)c2=O)c(F)cc1Cl)C(=O)OCC1CCCCO1 (stereo not shown) [I.12-91]
2. CCC(Sc1cc(-n2c(=O)cc(C(F)(F)F)n(C)c2=O)c(F)cc1Cl)C(=O)OCC1CCCO1 (stereo not shown) [I.2-71]
3. Cn1c(C(F)(F)F)cc(=O)n(-c2cc(SCC(C)(C)C(=O)OC3CCOCC3)c(Cl)cc2F)c1=O [I.48-127]

[0, 0, 20]

---

Tested on: Oryza sativa
EXPERIMENTAL_PROTOCOL: Crop compatibility post-emergence (greenhouse pot trial)
Format: in vivo
EXPERIMENTAL_PARAMETERS: application rate 20 g/ha
MEASURED_METRIC: Oryza sativa (Efficacy in %)
Numbers only, in %.

Solved cases (3 shown):
MOLECULE	Oryza sativa (Efficacy in %)
CC(Sc1cc(-n2c(=O)cc(C(F)(F)F)n(C)c2=O)c(F)cc1Cl)C(=O)OCC1CCCCO1 (stereo not shown) [I.1-91]	10
CC(Sc1cc(-n2c(=O)cc(C(F)(F)F)n(C)c2=O)c(F)cc1Cl)C(=O)NCC1COC(C)(C)O1 (stereo not shown) [I.1-334]	10
Cc1c(C(F)(F)F)n(C)c(=O)n(-c2cc(SC(CC(C)C)C(=O)NCC3CCCO3)c(Cl)cc2F)c1=O (stereo not shown) [I.14-221]	10

Would you be so kind as to report Oryza sativa (Efficacy in %) for each listed record?
1. CCC(Sc1cc(-n2c(=O)cc(C(F)(F)F)n(C)c2=O)c(F)cc1Cl)C(=O)OCC1CCCO1 (stereo not shown) [I.2-71]
2. CC(Sc1cc(-n2c(=O)cc(C(F)(F)F)n(C)c2=O)c(F)cc1Cl)C(=O)NCC1CCCO1 (stereo not shown) [I.1-271]

1. 20
2. 10

Need Oryza sativa (Efficacy in %) for each of these molecules.
1. COCCNC(=O)C(C)Sc1cc(-n2c(=O)cc(C(F)(F)F)n(C)c2=O)c(F)cc1Cl (stereo not shown) [I.1-151]
2. CCC(Sc1cc(-n2c(=O)c(C)c(C(F)(F)F)n(C)c2=O)c(F)cc1Cl)C(=O)OCC1CCOC1 (stereo not shown) [I.12-72]

1. 20
2. 20
